Items are presented alongside their recorded INH.
molecular target: UniProt:O94956; experiment: Inhibition of human liver OATP2B1 expressed in HEK293 Flp-In cells assessed as reduction in [3H]E3S uptake at 20 uM incubated for 5 mins by scintillation counting; conditions: hek293, 5 min
Sequence (O94956 whole entry): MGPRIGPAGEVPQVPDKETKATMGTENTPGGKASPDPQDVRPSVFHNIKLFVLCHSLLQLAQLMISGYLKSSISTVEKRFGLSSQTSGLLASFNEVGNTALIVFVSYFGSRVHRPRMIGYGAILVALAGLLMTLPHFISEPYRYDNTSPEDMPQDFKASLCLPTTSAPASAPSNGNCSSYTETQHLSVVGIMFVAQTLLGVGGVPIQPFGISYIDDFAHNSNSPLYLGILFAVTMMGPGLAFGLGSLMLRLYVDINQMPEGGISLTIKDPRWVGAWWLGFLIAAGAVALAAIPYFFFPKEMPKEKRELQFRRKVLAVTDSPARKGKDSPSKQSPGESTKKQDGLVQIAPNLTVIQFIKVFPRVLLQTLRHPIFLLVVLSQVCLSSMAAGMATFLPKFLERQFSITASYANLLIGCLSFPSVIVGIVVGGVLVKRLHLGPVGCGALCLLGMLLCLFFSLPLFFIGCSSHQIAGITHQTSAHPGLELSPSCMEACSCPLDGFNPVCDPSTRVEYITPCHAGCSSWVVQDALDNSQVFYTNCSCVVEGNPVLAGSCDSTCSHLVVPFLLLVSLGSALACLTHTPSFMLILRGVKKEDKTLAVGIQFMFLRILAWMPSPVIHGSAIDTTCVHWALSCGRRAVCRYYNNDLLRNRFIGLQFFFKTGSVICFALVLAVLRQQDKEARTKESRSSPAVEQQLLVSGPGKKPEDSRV
Give the value, in units of %, as a plain number.

Some entries whose results are on file:
O=C(O)C[C@H](O)C[C@H](O)/C=C/c1c(C2CC2)nc2ccccc2c1-c1ccc(F)cc1    63.7
O=c1c(O)c(-c2ccc(O)c(O)c2)oc2cc(O)cc(O)c12    72.6
C[C@]12CC[C@H]3[C@@H](CCC4=CC(=O)CC[C@@]43C)[C@@H]1CC[C@@H]2O    -175.1

Please supply the value of reported INH for the item COc1ccccc1OCC(O)CN1CCN(CC(=O)Nc2c(C)cccc2C)CC1 (centres undefined) 41.6

For `CN1CCC[C@@H]1Cc1c[nH]c2ccc(CCS(=O)(=O)c3ccccc3)cc12` , write its INH. 0.4

Provide one value: measured INH of CN(Cc1cnc2nc(N)nc(N)c2n1)c1ccc(C(=O)N[C@@H](CCC(=O)O)C(=O)O)cc1 [METHOTREXATE] -13.4

====

INH listing for selected compounds.
target: Solute carrier organic anion transporter family member 1B3 (Homo sapiens, UniProt Q9NPD5); test: Inhibition of human liver OATP1B3 expressed in HEK293 Flp-In cells assessed as reduction in [3H]E17-betaG uptake at 20 uM incubated for 5 mins by scintillation counting; settings: hek293, 5 min
Sequence (Q9NPD5 whole entry): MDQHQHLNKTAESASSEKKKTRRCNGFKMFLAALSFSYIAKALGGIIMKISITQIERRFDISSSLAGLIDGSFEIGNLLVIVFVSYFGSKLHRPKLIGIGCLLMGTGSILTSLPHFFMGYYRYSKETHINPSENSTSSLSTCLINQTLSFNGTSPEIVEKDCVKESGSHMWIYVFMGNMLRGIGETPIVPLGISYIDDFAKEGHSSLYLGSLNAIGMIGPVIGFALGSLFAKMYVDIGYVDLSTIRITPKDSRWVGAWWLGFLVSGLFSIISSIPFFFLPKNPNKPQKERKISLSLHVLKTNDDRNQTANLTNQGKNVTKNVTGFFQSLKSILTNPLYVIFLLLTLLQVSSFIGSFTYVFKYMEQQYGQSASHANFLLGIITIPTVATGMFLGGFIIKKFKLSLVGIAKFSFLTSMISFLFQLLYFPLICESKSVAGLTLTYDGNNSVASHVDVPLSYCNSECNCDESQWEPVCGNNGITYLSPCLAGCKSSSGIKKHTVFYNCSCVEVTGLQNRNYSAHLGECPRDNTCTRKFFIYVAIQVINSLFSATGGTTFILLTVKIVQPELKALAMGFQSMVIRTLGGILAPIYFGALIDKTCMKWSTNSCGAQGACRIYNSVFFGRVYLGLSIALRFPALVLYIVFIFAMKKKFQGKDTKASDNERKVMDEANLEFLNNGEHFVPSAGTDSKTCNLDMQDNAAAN
Write down the numeric answer in % and omit the unit.

A selection of reference data follows.
CN/C(=N/CCSCc1nc[nH]c1C)NC#N    24.8
CC1(C)C(/C=C/C=C/C=C/C=C2/N(CCCCS(=O)(=O)[O-])c3ccc4ccccc4c3C2(C)C)=[N+](CCCCS(=O)(=O)[O-])c2ccc3ccccc3c21.[Na+]    100.1
CNCCCN1c2ccccc2CCc2ccccc21    3.2
C=C(C)[C@@H]1CCC2=CC(=O)C[C@@H](C)[C@]2(C)C1    -3.2
CCOC(=O)[C@H](CCc1ccccc1)N[C@@H](C)C(=O)N1CCC[C@H]1C(=O)O    4.1
S=P(N1CC1)(N1CC1)N1CC1    0.6
CC[N+](CC)(CC)CC    4.9
S=C=NCCc1ccccc1 [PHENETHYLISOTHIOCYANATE]    12.3
C[N+](C)(C)CC(O)CC(=O)[O-] (stereo not drawn)    -9.3
Cc1c(O)cccc1C(=O)N[C@@H](CSc1ccccc1)[C@H](O)CN1C[C@H]2CCCC[C@H]2C[C@H]1C(=O)NC(C)(C)C    59.3

Check the records and state INH for CNC(=O)c1cccnc1 [NICOTINYL METHYLAMIDE] -0.5

Given the compound `O=c1c(O)c(-c2ccc(O)c(O)c2)oc2cc(O)cc(O)c12` , write its reported INH. 21.6

Determine its reported INH: `CCOc1nc2cccc(C(=O)O)c2n1Cc1ccc(-c2ccccc2-c2nnn[nH]2)cc1` 28.6

Please report the measured INH for `O=c1c(-c2ccc(O)cc2)coc2cc(O)ccc12` 0.7

Answer with reported INH of C[C@]12CC[C@@H]3c4ccc(O)cc4CC[C@H]3[C@@H]1CC[C@@H]2O[C@@H]1O[C@H](C(=O)O)[C@@H](O)[C@H](O)[C@H]1O [ESTRADIOL 17B GLUCURONIDE] 69

Output measured INH for this item: NC(=O)N1c2ccccc2C=Cc2ccccc21 [CARBAMAZEPINE] 23.2
